Where do these numbers come from? They come from ChEMBL document CHEMBL3352000.

Species: Rattus norvegicus
Experiment: Induction of hyperthermia in rat assessed as increase in body temperature measured every 5 mins during study period by telemetry
Type: organism-based
Settings: in vivo
Provide the recorded deltaT for the entries that follow.
Field format: number, assumed °C, no unit text.

Input: Answer with the recorded deltaT for the compound listed here: `Cc1cc2c(NC(=O)N[C@@H]3CC(CF)(CF)Oc4cc(Cl)ccc43)cccc2cn1`
Output: 0

Input: Find the measured deltaT of `Cc1cc2c(NC(=O)N[C@@H]3CC(CF)(CF)Oc4cc(Cl)ccc43)c(C)ccc2cn1` and report it.
Output: 1.1

Input: Supply deltaT value. Item: `Cc1cc2c(NC(=O)N[C@@H]3CC(CF)(CF)Oc4cc(F)ccc43)cccc2cn1`
Output: 0

###

Exercise: for every item that follows, state its recorded inhibition.
Biological target: UniProt Q8NER1
Sequence (Q8NER1 whole entry): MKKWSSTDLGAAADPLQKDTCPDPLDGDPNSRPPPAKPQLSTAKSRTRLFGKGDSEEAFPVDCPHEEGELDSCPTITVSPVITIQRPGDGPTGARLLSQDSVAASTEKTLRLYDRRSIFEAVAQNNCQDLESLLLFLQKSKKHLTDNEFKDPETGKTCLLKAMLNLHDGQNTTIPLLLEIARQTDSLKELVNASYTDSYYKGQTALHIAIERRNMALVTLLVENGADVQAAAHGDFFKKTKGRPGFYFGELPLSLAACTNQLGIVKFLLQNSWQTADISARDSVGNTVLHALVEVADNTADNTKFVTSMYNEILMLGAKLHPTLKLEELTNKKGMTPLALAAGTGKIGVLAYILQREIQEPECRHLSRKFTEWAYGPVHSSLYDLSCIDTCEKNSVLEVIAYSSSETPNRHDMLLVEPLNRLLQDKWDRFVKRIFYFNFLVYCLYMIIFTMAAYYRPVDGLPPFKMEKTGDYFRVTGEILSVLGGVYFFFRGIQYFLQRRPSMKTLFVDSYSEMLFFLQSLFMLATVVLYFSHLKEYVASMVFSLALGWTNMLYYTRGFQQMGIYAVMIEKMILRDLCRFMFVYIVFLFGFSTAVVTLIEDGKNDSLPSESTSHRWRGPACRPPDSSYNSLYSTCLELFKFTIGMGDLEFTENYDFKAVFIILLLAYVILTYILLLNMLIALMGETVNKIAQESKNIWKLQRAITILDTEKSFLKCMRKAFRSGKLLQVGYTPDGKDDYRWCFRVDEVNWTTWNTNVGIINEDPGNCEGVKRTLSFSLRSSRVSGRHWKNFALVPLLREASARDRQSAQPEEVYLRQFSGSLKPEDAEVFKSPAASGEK
Assay: Antagonist activity against human TRPV1 expressed in HEK293 cells assessed as ph 5.0-induced calcium flux at 30 uM by FLIPR assay
Format: cell-based
Give the number first and the unit second.

Input: Identify the reported inhibition for the following entry. `CC1(C)C[C@@H](NC(=O)Nc2cccc3[nH]ncc23)c2ccc(F)cc2O1`
Output: 95%

Input: Please give the documented inhibition of `Cc1nc(Nc2cccc3c2C[C@H](O)CC3)oc1-c1ccc(C(F)(F)F)cc1`
Output: 99%

Input: Give the measured inhibition for `Cc1cc2c(NC(=O)N[C@@H]3CC(C)(C)Oc4cc(F)ccc43)cccc2cn1`
Output: 70%

###

Species: Rattus norvegicus
Assay: Induction of hyperthermia in rat assessed as increase in body temperature measured every 5 mins during study period by telemetry
Type: organism-based
Conditions: in vivo
recorded.metric: deltaT (°C)
Provide the reading as a plain figure in °C.

Input: Look up deltaT of `Cc1cc2c(NC(=O)N[C@@H]3CC(CF)(CF)Oc4cc(Cl)ccc43)c(F)ccc2cn1` and report it.
Output: 0.8

Input: State its deltaT: `Cc1cc2c(NC(=O)N[C@@H]3CC(C)(C)Oc4c3ccc(C(F)(F)F)c4F)cccc2cn1`
Output: 0.8

Input: Tell me its deltaT given CC(C)(C)c1ccc2c(c1)CC[C@H]2NC(=O)Nc1cccc2[nH]ncc12 [ABT-102] as the entry.
Output: 0.8
